- Measurement Target: Recombinant Human NF-kappaB-Inducing Kinase (NIK/MAP3K14) (Homo sapiens)
- Sequence (Q99558 whole entry): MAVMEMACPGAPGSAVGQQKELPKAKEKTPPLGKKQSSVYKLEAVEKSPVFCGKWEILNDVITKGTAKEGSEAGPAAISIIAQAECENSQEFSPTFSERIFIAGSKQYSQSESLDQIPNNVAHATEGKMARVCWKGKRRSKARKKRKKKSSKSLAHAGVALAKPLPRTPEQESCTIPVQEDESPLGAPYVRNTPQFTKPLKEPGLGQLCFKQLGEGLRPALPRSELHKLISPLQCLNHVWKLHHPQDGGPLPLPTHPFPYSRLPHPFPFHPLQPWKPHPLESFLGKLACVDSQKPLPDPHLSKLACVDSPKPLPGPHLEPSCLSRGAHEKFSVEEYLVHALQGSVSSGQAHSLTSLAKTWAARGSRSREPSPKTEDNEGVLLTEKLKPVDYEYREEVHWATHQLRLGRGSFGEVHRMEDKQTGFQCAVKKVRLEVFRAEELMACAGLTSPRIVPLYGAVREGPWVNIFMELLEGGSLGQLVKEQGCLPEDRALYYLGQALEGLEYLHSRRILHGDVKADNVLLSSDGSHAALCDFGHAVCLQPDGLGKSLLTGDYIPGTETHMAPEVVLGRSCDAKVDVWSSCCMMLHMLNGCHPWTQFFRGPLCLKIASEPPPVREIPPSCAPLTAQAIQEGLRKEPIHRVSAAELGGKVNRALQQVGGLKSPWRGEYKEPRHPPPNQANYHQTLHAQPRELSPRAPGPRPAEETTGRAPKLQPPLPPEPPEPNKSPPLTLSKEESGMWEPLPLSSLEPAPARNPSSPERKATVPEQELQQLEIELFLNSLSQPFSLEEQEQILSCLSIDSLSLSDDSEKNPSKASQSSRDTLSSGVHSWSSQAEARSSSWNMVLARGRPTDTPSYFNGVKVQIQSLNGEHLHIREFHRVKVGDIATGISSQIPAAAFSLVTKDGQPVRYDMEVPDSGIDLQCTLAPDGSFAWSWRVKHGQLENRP
- Protocol Description: Biological Assay A: inhibition of recombinant human NIK/MAP3K14 activity (MSD, MBP substrate)
- Measurement Parameters: 10 nM NIK, 25 μM ATP, 1 h at 25° C.; averaged over all measurements on all batches; read-out: Biochemical (MSD IC50)
pIC50: −log10 of the molar value.
pIC50 values, listed per item
Experimental Endpoint: pIC50

Compound: CC(C)(O)C#Cc1ccc2c(c1)c(-c1cn[nH]c1)cn2CC1CCOC1 (stereo not drawn)
Experimental Endpoint: pIC50
Observed Result: 7.42

Compound: CC(C)(O)C#Cc1ccc2c(c1)c(-c1cn[nH]c1)cn2CCO
Experimental Endpoint: pIC50
Observed Result: 7.80

Compound: CCn1cc(-c2c[nH]nc2C(F)(F)F)c2cc(C#CC(C)(C)O)ccc21
Experimental Endpoint: pIC50
Observed Result: 6.24

Compound: COCCn1cc(-c2cn[nH]c2)c2cc(C#CC(C)(C)O)ccc21
Experimental Endpoint: pIC50
Observed Result: 7.96

Compound: CC(C)(O)C#Cc1ccc2c(c1)c(-c1cn[nH]c1)cn2CC1COC1
Experimental Endpoint: pIC50
Observed Result: 8.22

Compound: CCn1cc(-c2cn[nH]c2)c2cc(C#CC(C)(C)O)ccc21
Experimental Endpoint: pIC50
Observed Result: 8.10

Compound: CCn1cc(-c2c[nH]nc2C)c2cc(C#CC(C)(C)O)ccc21
Experimental Endpoint: pIC50
Observed Result: 7.15

Compound: CC(C)n1cc(-c2cn[nH]c2)c2cc(C#CC(C)(C)O)ccc21
Experimental Endpoint: pIC50
Observed Result: 7.89

Compound: Cn1cc(-c2cn[nH]c2)c2cc(C#CC(C)(C)O)ccc21
Experimental Endpoint: pIC50
Observed Result: 7.39

* * *

pIC50 values, listed per item
- Measurement Target: Recombinant Human NF-kappaB-Inducing Kinase (NIK/MAP3K14) (Homo sapiens)
- Protocol Description: Biological Assay A2: inhibition of auto-phosphorylation of recombinant human NIK/MAP3K14 (AlphaScreen)
- Assay type: biochemical
- Measurement Parameters: 0.2 nM GST-tagged NIK, 25 microM ATP, 1 h at 25° C., averaged values
pIC50: −log10 of the molar value.
Experimental Endpoint: pIC50

Molecule: Cc1cc(C(C)(O)C#Cc2cc3c(-c4c[nH]nc4Cl)cn(C4CCN(C)CC4)c3cc2F)no1 (stereo not drawn)
Experimental Endpoint: pIC50
Observed Result: 7.38

Molecule: CCn1cc(-c2cn[nH]c2)c2cc(C#CC(C)(C)O)cc(C#N)c21
Experimental Endpoint: pIC50
Observed Result: 6.26

Molecule: CCn1cc(-c2c[nH]nc2C)c2cc(C#CC(C)(C)O)ccc21
Experimental Endpoint: pIC50
Observed Result: 7.46

Molecule: CN1CCC(n2cc(-c3c[nH]nc3Cl)c3cc(C#CC(C)(O)c4nccs4)c(F)cc32)CC1 (stereo not drawn)
Experimental Endpoint: pIC50
Observed Result: 7.74

Molecule: CCn1cc(-c2c[nH]nc2Cl)c2cc(C#CC(C)(C)O)cc(Cl)c21
Experimental Endpoint: pIC50
Observed Result: 6.69

Molecule: CC(C)(O)C#Cc1ccc2c(c1)c(-c1cn[nH]c1)cn2CC(C)(C)O
Experimental Endpoint: pIC50
Observed Result: 6.96

Molecule: CC(C)(O)C#Cc1ccc2c(c1)c(-c1cn[nH]c1)cn2CC1CCOC1 (stereo not drawn)
Experimental Endpoint: pIC50
Observed Result: 7.60

Molecule: CCn1cc(-c2c[nH]nc2N)c2cc(C#CC(C)(C)O)ccc21
Experimental Endpoint: pIC50
Observed Result: 7.37

Molecule: CCn1cc(-c2cn[nH]c2)c2cc(C#CC(C)(C)O)cc(C(F)(F)F)c21
Experimental Endpoint: pIC50
Observed Result: 6.26

Molecule: CCn1cc(-c2cn[nH]c2)c2cc(C#CC(C)(C)O)ccc21
Experimental Endpoint: pIC50
Observed Result: 7.37

Molecule: CC(O)(C#Cc1ccc2[nH]cc(-c3cn[nH]c3)c2c1)c1nccs1 (stereo not drawn)
Experimental Endpoint: pIC50
Observed Result: 8.15

Molecule: OC1(C#Cc2ccc3[nH]cc(-c4cn[nH]c4)c3c2)CCCC1
Experimental Endpoint: pIC50
Observed Result: 7.55

Molecule: CN1CCC(n2cc(-c3c[nH]nc3Cl)c3cc(C#CC(C)(C)O)c(F)cc32)CC1
Experimental Endpoint: pIC50
Observed Result: 7.68

Molecule: CN1CC(n2cc(-c3c[nH]nc3Cl)c3cc(C#CC(C)(C)O)c(F)cc32)C1
Experimental Endpoint: pIC50
Observed Result: 7.30

Molecule: CC(C)(O)C#Cc1ccc2[nH]cc(-c3cn[nH]c3)c2c1
Experimental Endpoint: pIC50
Observed Result: 7.66

Molecule: CCn1cc(-c2c[nH]nc2C(F)(F)F)c2cc(C#CC(C)(C)O)ccc21
Experimental Endpoint: pIC50
Observed Result: 6.46

Molecule: CN1CCC(n2cc(-c3c[nH]nc3Cl)c3cc(C#CC(C)(O)c4ncccn4)c(F)cc32)CC1 (stereo not drawn)
Experimental Endpoint: pIC50
Observed Result: 6.79

Molecule: Cc1nc(C(C)(O)C#Cc2cc3c(-c4c[nH]nc4Cl)cn(C4CCN(C)CC4)c3cc2F)no1 (stereo not drawn)
Experimental Endpoint: pIC50
Observed Result: 7.08

* * *

pIC50 values, listed per item
- Measurement Target: Recombinant Human NF-kappaB-Inducing Kinase (NIK/MAP3K14) (Homo sapiens)
- Protocol Description: Biological Assay A2: inhibition of auto-phosphorylation of recombinant human NIK/MAP3K14 (AlphaScreen)
- Format: biochemical
- Measurement Parameters: 0.2 nM GST-tagged NIK, 25 microM ATP, 1 h at 25° C., averaged values
pIC50: −log10 of the molar value.

Compound: CC(C)(O)C#Cc1ccc2c(c1)c(-c1cn[nH]c1)cn2CCO
pIC50: 7.19
//
Compound: CCn1cc(-c2cn[nH]c2)c2cc(C#CC(C)(C)O)cc(F)c21
pIC50: 7.29
//
Compound: [2H]C([2H])([2H])C(O)(C#Cc1cc2c(-c3c[nH]nc3Cl)cn(C3CCCN(CC)C3)c2cc1F)C([2H])([2H])[2H] (single isomer, unassigned) [Compound 32]
pIC50: 7.12
//
Compound: CN1CCC(n2cc(-c3c[nH]nc3Cl)c3cc(C#CC(C)(O)C4CC4)c(F)cc32)CC1 (centres unmarked)
pIC50: 6.72
//
Compound: [2H]c1n[nH]c([2H])c1-c1cn(CC)c2cc(F)c(C#CC(C)(C)O)cc12
pIC50: 5.07
//
Compound: COCCn1cc(-c2cn[nH]c2)c2cc(C#CC(C)(C)O)ccc21
pIC50: 7.14
//
Compound: CC(C)n1cc(-c2cn[nH]c2)c2cc(C#CC(C)(C)O)ccc21
pIC50: 7.85
//
Compound: [2H]C([2H])([2H])C(O)(C#Cc1cc2c(-c3c[nH]nc3Cl)cn(C3CCCN(CC)C3)c2cc1F)C([2H])([2H])[2H] (centres unmarked) [Compound 30]
pIC50: 6.90

* * *

pIC50 values, listed per item
- Measurement Target: Recombinant Human NF-kappaB-Inducing Kinase (NIK/MAP3K14) (Homo sapiens)
- Protocol Description: Biological Assay A2: inhibition of auto-phosphorylation of recombinant human NIK/MAP3K14 (AlphaScreen)
- Format: biochemical
- Measurement Parameters: 0.2 nM GST-tagged NIK, 25 microM ATP, 1 h at 25° C., averaged values
pIC50: −log10 of the molar value.

Compound Smiles: CC(C)(O)C#Cc1ccc2c(c1)c(-c1cn[nH]c1)cn2CC1COC1
pIC50: 7.18
--
Compound Smiles: CCn1cc(-c2c[nH]nc2Cl)c2cc(C#CC(C)(C)O)c(F)c(F)c21
pIC50: 7.07
--
Compound Smiles: CCn1cc(-c2c[nH]nc2Cl)c2cc(C#CC(C)(C)O)c(F)cc21
pIC50: 7.96

* * *

EC50 values, listed per item
- System: LP-1 cells
- Protocol Description: Biological Assay C: antiproliferative activity on LP-1 cells (CellTiter-Glo)
- Format: cell-based, human
- Measurement Parameters: 72 hr treatment, averaged values

Compound: [2H]C([2H])([2H])C(O)(C#Cc1cc2c(-c3c[nH]nc3Cl)cn(C3CCCN(CC)C3)c2cc1F)C([2H])([2H])[2H] (single isomer, unassigned) [Compound 32]
EC50, nM: 407
//
Compound: [2H]C([2H])([2H])C(O)(C#Cc1cc2c(-c3c[nH]nc3Cl)cn(C3CCCN(CC)C3)c2cc1F)C([2H])([2H])[2H] (single isomer, unassigned) [Compound 31]
EC50, nM: 731
